Target: Bcl-2-like protein 1 (Bcl-XL) (Homo sapiens)
pKi: −log10 of the molar value.
testReadout: pKi

structuresmilesstring=CN(C)CC[C@H](CSc1ccccc1)Nc1ccc(S(=O)(=O)NC(=O)c2ccc(N3CCN(CC4=C(c5ccc(Cl)cc5)CCC(C)(C)C4)CC3)cc2)cc1[N+](=O)[O-] reported=8.85
